Catalogue of compounds with associated composite z-score
biological target: Torsin-1A-interacting protein 1 (Homo sapiens) (UniProt Q5JTV8); assay: compound microarray binding of lysate hLAP1 – cell lysate, small-molecule microarray, COS7 lysate, 635/667 nm fluorescence, primary screen (AID 1116); conditions: 635 nm fluorescence, higher = more signal
Sequence (Q5JTV8 whole entry, looked up): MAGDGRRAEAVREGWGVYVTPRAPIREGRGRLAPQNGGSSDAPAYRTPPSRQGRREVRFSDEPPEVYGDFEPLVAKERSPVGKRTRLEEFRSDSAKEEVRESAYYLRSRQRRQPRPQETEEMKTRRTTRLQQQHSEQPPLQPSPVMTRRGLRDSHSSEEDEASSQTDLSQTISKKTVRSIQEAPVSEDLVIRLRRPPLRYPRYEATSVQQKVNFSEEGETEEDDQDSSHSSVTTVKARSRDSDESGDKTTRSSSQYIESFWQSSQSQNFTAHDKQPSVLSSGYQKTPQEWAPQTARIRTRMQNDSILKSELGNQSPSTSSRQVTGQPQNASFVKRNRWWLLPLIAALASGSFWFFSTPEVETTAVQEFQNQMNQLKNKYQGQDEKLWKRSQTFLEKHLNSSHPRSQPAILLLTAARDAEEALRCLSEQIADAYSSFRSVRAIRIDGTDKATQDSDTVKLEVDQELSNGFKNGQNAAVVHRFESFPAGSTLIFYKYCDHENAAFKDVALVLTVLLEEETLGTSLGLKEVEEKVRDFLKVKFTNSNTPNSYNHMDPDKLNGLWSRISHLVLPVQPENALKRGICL

{"columns": ["COMPOUND", "composite z-score"],
 "data": [
  ["CC(c1ccccc1)C(O)C1C=CC2C(=O)N(C)C(=O)C2N1Nc1ccccc1 (centres undefined)", 0.694],
  ["COCCOC(=O)N1C(=O)[C@@]2(c3cc(C#CCCO)ccc31)[C@H](c1ccc(OCCO)cc1)N1[C@H](c3ccccc3)[C@H](c3ccccc3)OC(=O)[C@H]1[C@@H]2C(=O)Nc1nc2ccccc2s1", 1.08],
  ["COc1ccc(C#Cc2ccc3c(c2)[C@]2(C(=O)N3)[C@H](c3ccc(OCCO)cc3)N3[C@H](c4ccccc4)[C@H](c4ccccc4)OC(=O)[C@H]3[C@@H]2C(=O)NC[C@H](O)c2ccccc2)cc1", 0.64],
  ["C=CCNC(=O)[C@@H]1[C@H]2C(=O)O[C@H](c3ccccc3)[C@H](c3ccccc3)N2[C@H](c2ccc(OCCO)cc2)[C@@]12C(=O)N(C(=O)OCCOC)c1ccc(C#Cc3ccc(OC)cc3)cc12", 0.229],
  ["CC(C)(C)OC(=O)COc1cccc(C(=O)CCN2CCOCC2)c1", -0.0786],
  ["COc1ccc(CCNC(=O)[C@@H]2c3ccccc3C(=O)N(C3CCCCC3)[C@H]2c2ccc(CO)cc2)cc1", -0.17],
  ["CC(C)[Si](C#CCCCC#N)(O[C@H](c1ccccc1)c1cn(Cc2ccccc2)nn1)C(C)C", 0.439],
  ["CCOC(=O)C1=CC[C@@H](c2ccccc2F)N(S(=O)(=O)c2ccc(C)cc2)[C@H]1c1ccccc1", 0.292],
  ["COC(=O)[C@@H]1N=C(c2ccc(OCCCO)cc2)O[C@@H]1c1ccccc1", -0.992],
  ["CCOC(=O)C1=CC[C@@H](c2ccccc2)N(S(=O)(=O)c2ccc(C)cc2)[C@H]1c1ccccc1", 0.46],
  ["COc1ccc(CCNC(=O)[C@@]2(Cc3ccccc3I)c3ccccc3C(=O)N(C3CCCCC3)[C@H]2c2ccc(CO)cc2)cc1", 0.0805],
  ["COC(=O)[C@@]1(Cc2ccccc2)[C@H]2c3cc(C(=O)N(C)C)n(Cc4ccc(C)o4)c3C[C@H]2CN1C(=O)c1ccccc1", 1.29],
  ["C=CCC(OC(C)=O)[C@@H]1[C@@H](N(Cc2ccc(-c3cccc(C(F)(F)F)c3)o2)C(=O)Cc2ccc(OC)cc2)c2cc(OCCCO)ccc2N1C(=O)c1ccc(-c2ccccc2)cc1 (some centres undefined)", -0.205],
  ["[N-]=[N+]=Nc1ccccc1[C@H]1OC(c2ccc(OCCCO)cc2)=N[C@@]1(Cc1ccccc1)C(=O)NCCN1CCOCC1", 0.998]
]}
